System: corn (Zea mays)
experimental.details: Test C greenhouse herbicide test, pre- and postemergence
Type: in vivo
measurement.setup: Postemergence, 250 g ai/ha; scale 0 to 100, 0 no effect, 100 complete control; 13 to 15 d
# if value of Plant response rating, Corn reaches 20, tag criterion met; if it stays below, tag criterion not met

{"compound": "CCOC(=O)Oc1c(C)nn(C)c(=O)c1-c1c(C)ccc2ccccc12 [Compound 73]", "answer.label": "criterion met"}
{"compound": "CC(=O)Oc1c(C)nn(C)c(=O)c1-c1c(C)sc2c(C)cc(C)cc12 [Compound 27]", "answer.label": "criterion not met"}
{"compound": "Cc1nn(C)c(=O)c(-c2cccc3ccc(C#N)cc23)c1O [Compound 127]", "answer.label": "criterion not met"}

Textbook exercise: given the entry Cc1ccc2ccccc2c1-c1c(O)c(C)nn(C)c1=O [Compound 59] , state whether its Plant response rating, Corn is greater than or equal to 20.
criterion met

These measurements were taken from patent US10597388B2.
